Molecular target: CYP2B6 (Homo sapiens, UniProt P20813)
Assay: IC50 shift study
Format: in vitro ADME
Settings: IC50 (−), 30-min preincubation without NADPH

compound: CCCCCc1cc(O)c2c(c1)OC(C)(C)c1ccc(C)cc1-2 [CBN, cannabinol]
IC50, µM: 2.1

compound: C=C(C)[C@@H]1CCC(C)=C[C@H]1c1c(O)cc(CCCCC)cc1O [CBD, cannabidiol]
IC50, µM: 1.9

====

Target: CYP1A2 (Homo sapiens)
Experiment: Inhibition of CYP1A2 probe
Assay type: in vitro ADME
Conditions: IC50, HLM; probe phenacetin

smiles.notation: C=C(C)[C@@H]1CCC(C)=C[C@H]1c1c(O)cc(CCCCC)cc1O
IC50: 6.8 µM

====

Target: CYP1A2 (Homo sapiens)
Sequence (P05177 1-516): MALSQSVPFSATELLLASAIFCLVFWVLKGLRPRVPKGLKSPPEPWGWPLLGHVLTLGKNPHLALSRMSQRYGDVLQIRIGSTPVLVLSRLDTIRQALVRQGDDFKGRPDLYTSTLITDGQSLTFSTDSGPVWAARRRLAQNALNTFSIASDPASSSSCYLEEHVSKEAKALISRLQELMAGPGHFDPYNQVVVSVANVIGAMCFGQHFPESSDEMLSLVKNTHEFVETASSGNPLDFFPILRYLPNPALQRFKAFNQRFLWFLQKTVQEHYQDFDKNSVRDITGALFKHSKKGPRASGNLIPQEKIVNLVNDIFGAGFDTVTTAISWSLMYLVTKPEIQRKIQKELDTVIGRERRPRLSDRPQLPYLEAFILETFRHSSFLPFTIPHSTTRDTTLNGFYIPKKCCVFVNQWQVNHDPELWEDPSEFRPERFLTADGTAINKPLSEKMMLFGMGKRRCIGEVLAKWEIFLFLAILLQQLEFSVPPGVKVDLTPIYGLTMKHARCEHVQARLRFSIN
Experiment: Inhibition of rCYP1A2 in microsomes from CYP450-overexpressing HEK293 cells
Type: in vitro ADME
Conditions: Ki,u, rCYP1A2 microsomes; probe phenacetin; corrected for fu,inc
reported.metric: Ki (nM)

smiles.notation: C=C(C)[C@@H]1CCC(C)=C[C@H]1c1c(O)cc(CCCCC)cc1O
recorded.number: 120

====

Target: CYP1A2 (Homo sapiens)
Sequence (P05177 1-516): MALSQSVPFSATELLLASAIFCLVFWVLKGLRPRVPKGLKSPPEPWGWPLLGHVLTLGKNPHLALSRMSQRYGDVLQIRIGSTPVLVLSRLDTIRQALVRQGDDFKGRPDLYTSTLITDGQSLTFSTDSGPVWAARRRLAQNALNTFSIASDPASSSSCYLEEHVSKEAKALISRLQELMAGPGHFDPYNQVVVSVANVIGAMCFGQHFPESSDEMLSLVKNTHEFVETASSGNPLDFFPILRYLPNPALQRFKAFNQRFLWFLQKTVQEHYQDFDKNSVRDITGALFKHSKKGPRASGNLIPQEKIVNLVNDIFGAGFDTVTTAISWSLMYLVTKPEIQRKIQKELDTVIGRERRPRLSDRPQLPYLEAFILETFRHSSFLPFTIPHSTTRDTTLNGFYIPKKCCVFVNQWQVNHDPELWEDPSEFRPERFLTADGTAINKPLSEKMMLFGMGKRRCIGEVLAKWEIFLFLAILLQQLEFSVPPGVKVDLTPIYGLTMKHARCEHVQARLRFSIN
Assay: Inhibition of CYP1A2 probe
Type: in vitro ADME
Conditions: IC50,u, HLM; probe phenacetin; corrected for fu,inc
pIC50: −log10 of the molar value.
reported.metric: pIC50

smiles.notation: C=C(C)[C@@H]1CCC(C)=C[C@H]1c1c(O)cc(CCCCC)cc1O
recorded.number: 6.17

====

The following compounds are shown together with reported IC50 values.
Molecular target: CYP2E1 (Homo sapiens, UniProt P05181)
Sequence (P05181 whole entry): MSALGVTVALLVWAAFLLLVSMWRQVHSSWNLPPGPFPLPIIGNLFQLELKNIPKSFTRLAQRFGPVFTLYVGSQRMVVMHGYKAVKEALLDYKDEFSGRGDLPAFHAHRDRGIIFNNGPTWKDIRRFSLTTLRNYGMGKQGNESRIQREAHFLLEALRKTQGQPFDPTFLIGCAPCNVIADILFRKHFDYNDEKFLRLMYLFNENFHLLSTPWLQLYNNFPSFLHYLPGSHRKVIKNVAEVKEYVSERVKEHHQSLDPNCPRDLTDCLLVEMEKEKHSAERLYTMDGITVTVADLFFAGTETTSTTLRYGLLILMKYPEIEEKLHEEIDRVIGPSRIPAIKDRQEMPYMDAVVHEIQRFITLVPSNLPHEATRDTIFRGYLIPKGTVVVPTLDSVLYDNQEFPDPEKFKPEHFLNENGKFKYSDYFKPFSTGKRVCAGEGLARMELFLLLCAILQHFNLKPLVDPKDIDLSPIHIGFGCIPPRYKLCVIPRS
Assay: Inhibition of CYP2E1 probe
Type: in vitro ADME
Conditions: IC50, HLM; probe chlorzoxazone

compound: CCCCCc1cc(O)c2c(c1)OC(C)(C)c1ccc(C)cc1-2 [CBN, cannabinol]
IC50, nM: 1100
--
compound: C=C(C)[C@@H]1CCC(C)=C[C@H]1c1c(O)cc(CCCCC)cc1O [CBD, cannabidiol]
IC50, nM: 1400

====

Target: CYP2E1 (Homo sapiens, UniProt P05181)
Experiment: Inhibition of rCYP2E1 in microsomes from CYP450-overexpressing HEK293 cells
Type: in vitro ADME
Details: Ki,u, rCYP2E1 microsomes; probe chlorzoxazone; corrected for fu,inc
pKi: −log10 of the molar value.
// reported pKi per item

smiles.notation: C=C(C)[C@@H]1CCC(C)=C[C@H]1c1c(O)cc(CCCCC)cc1O
pKi: 7.68
--
smiles.notation: CCCCCc1cc(O)c2c(c1)OC(C)(C)c1ccc(C)cc1-2
pKi: 7.20

====

Molecular target: CYP2E1 (Homo sapiens)
Test: Inhibition of rCYP2E1 in microsomes from CYP450-overexpressing HEK293 cells
Type: in vitro ADME
Settings: Ki, rCYP2E1 microsomes; probe chlorzoxazone
pKi: −log10 of the molar value.

smiles.notation: C=C(C)[C@@H]1CCC(C)=C[C@H]1c1c(O)cc(CCCCC)cc1O
target.or.system: CYP2E1 (Homo sapiens)
pKi: 6.47

smiles.notation: CCCCCc1cc(O)c2c(c1)OC(C)(C)c1ccc(C)cc1-2
target.or.system: CYP2E1 (Homo sapiens)
pKi: 6.68

====

Ki: recorded values
Biological target: CYP2B6 (Homo sapiens, UniProt P20813)
Experiment: Inhibition of CYP2B6 probe
Assay type: in vitro ADME
Settings: Ki, HLM; probe bupropion (CYP2B6)

smiles.notation: CCCCCc1cc(O)c2c(c1)OC(C)(C)c1ccc(C)cc1-2
Ki: 1700 nM

smiles.notation: C=C(C)[C@@H]1CCC(C)=C[C@H]1c1c(O)cc(CCCCC)cc1O
Ki: 2200 nM

====

Molecular target: CYP2E1 (Homo sapiens)
Test: Inhibition of rCYP2E1 in microsomes from CYP450-overexpressing HEK293 cells
Assay type: in vitro ADME
Settings: IC50, rCYP2E1 microsomes; probe chlorzoxazone
pIC50: −log10 of the molar value.

smiles.notation: CCCCCc1cc(O)c2c(c1)OC(C)(C)c1ccc(C)cc1-2
pIC50: 6.04
--
smiles.notation: C=C(C)[C@@H]1CCC(C)=C[C@H]1c1c(O)cc(CCCCC)cc1O
pIC50: 6.23

====

Experiment: Unbound fraction in incubation
Assay type: in vitro ADME
Details: human, HEK293 cell microsomes in buffer

smiles.notation: CCCCCc1cc(O)c2c(c1)OC(C)(C)c1ccc(C)cc1-2
fraction unbound at 30 min, 50 µM: 0.03

====

Biological target: CYP2B6 (Homo sapiens)
Sequence (P20813 1-491): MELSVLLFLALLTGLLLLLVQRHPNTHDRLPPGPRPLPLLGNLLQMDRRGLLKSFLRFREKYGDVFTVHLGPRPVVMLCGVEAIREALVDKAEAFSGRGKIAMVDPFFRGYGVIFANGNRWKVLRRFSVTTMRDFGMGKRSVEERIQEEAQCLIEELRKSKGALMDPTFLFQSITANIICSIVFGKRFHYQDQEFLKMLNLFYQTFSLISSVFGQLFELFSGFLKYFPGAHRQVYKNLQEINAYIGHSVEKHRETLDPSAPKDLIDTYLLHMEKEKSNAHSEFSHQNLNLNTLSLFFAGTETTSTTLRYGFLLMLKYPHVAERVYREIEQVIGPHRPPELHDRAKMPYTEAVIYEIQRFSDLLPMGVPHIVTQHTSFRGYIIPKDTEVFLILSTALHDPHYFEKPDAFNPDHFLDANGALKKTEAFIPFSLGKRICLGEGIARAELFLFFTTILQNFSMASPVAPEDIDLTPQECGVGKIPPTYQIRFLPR
Assay: IC50 shift study
Format: in vitro ADME
Settings: IC50 (+), 30-min preincubation with NADPH
pIC50: −log10 of the molar value.

compound: CCCCCc1cc(O)c2c(c1)OC(C)(C)c1ccc(C)cc1-2 [CBN, cannabinol]
pIC50: 5.70
--
compound: C=C(C)[C@@H]1CCC(C)=C[C@H]1c1c(O)cc(CCCCC)cc1O [CBD, cannabidiol]
pIC50: 5.89

====

Target: UniProt P20813
Assay: Inhibition of rCYP2B6 in microsomes from CYP450-overexpressing HEK293 cells
Format: in vitro ADME
Settings: Ki,u, rCYP2B6 microsomes; probe bupropion; corrected for fu,inc
pKi: −log10 of the molar value.

smiles.notation: CCCCCc1cc(O)c2c(c1)OC(C)(C)c1ccc(C)cc1-2
target.or.system: UniProt P20813
pKi: 6.72
//
smiles.notation: C=C(C)[C@@H]1CCC(C)=C[C@H]1c1c(O)cc(CCCCC)cc1O
target.or.system: UniProt P20813
pKi: 7.17

====

Target: CYP2B6 (Homo sapiens, UniProt P20813)
Sequence (P20813 1-491): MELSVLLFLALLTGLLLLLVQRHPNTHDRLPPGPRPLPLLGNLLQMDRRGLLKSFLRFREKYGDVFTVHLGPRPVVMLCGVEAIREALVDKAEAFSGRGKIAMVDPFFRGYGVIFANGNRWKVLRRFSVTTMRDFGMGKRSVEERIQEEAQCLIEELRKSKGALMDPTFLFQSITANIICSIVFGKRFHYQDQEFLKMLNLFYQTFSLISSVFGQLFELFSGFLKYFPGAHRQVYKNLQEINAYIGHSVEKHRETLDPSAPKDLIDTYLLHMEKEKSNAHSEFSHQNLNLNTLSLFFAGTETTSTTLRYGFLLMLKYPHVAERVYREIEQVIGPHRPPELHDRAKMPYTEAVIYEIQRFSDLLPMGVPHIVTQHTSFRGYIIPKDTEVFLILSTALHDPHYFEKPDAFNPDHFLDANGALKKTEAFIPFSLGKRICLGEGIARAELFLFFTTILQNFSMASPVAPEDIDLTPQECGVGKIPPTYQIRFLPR
Experiment: Inhibition of rCYP2B6 in microsomes from CYP450-overexpressing HEK293 cells
Type: in vitro ADME
Details: IC50,u, rCYP2B6 microsomes; probe bupropion; corrected for fu,inc

compound: CCCCCc1cc(O)c2c(c1)OC(C)(C)c1ccc(C)cc1-2 [CBN, cannabinol]
IC50, nM: 630
//
compound: C=C(C)[C@@H]1CCC(C)=C[C@H]1c1c(O)cc(CCCCC)cc1O [CBD, cannabidiol]
IC50, nM: 130
